Data origin: PubChem BioAssay AID751

System: 26S proteasome (yeast, GFP-tagged, ATP-dependent disassembly)
ASSAY_NAME: inhibitors of ATP-driven 26S proteasome dissociation, primary screen, biochemical, bead-based flow cytometry, GFP-tagged proteasome (AID 751);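 also: plate controls were ATP control with full disassembly for no effect and ATP-gamma-S intact proteasomes for full effect; higher percent means more bead fluorescence retained so stronger block of disassembly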
MEASUREMENT_CONTEXT: anti-FLAG beads, hits give high values, concentration not given here
Hit rate of the full screen: of about 24,000 compounds, about 40 (0.2%) were called active. The list comes from a sample in which actives are over-represented; it also holds close analogues and randomly drawn compounds.
# inhibition of disassembly per entry
PROPERTY_NAME: inhibition of disassembly (%)

>>> readout_value("CCOCCc1c(O)nc(SCC(=O)NCc2ccco2)[nH]c1=O")
-2.18
>>> readout_value("Fc1ccccc1C(c1nnnn1Cc1ccc2c(c1)OCO2)N1CCN(Cc2ccccc2)CC1 (centres undefined)")
-0.69
>>> readout_value("CCN(c1ccc2c(c1)OCO2)S(=O)(=O)c1cc(Br)cc2c1N(C(=O)C1CC1)CC2")
28.9
>>> readout_value("Cc1nnc(SCCCn2c(N3CCCCC3)nc3c2c(=O)[nH]c(=O)n3C)s1")
-3.02
